assay: Highest frequency of acute liver toxicity observed during clinical trials, expressed as a percentage. [column '% AIGUE' in source]; settings: human
Measured Hepatotoxicity (acute) accompanies every entry in the list below.
endpoint: Hepatotoxicity (acute) (%)

CCCCCCCCCCCCCCCCOP(=O)([O-])OCC[N+](C)(C)C :: 2.2
CCCCCCCCCCC[C@@H](C[C@@H]1OC(=O)[C@H]1CCCCCC)OC(=O)[C@H](CC(C)C)NC=O :: 0
C[C@H]([C@](O)(Cn1cncn1)c1ccc(F)cc1F)S(C)(=O)=O :: 0
CC(C)NCC(O)COc1cccc2[nH]ccc12 (centres undefined) :: 0
CC1(C)CC(=O)N(CCCCN2CCN(c3ncccn3)CC2)C(=O)C1 [GEPIRONE] :: 0
C[C@H]1COc2c(N3CCN(C)CC3)c(F)cc3c(=O)c(C(=O)O)cn1c23.C[C@H]1COc2c(N3CCN(C)CC3)c(F)cc3c(=O)c(C(=O)O)cn1c23.O :: 0
CCOC(=O)Nc1ccc2c(c1)N(C(=O)CCN1CCOCC1)c1ccccc1S2 :: 0
CN(C)CCOC1=Cc2ccccc2Sc2ccc(Cl)cc21 [ZOTEPINE] :: 0
O=C1CN(/N=C/c2ccc([N+](=O)[O-])o2)C(=O)N1CO :: 0
O=C(OC[C@H]1O[C@@H](OC(=O)c2cc(O)c(O)c(OC(=O)c3cc(O)c(O)c(O)c3)c2)[C@H](OC(=O)c2cc(O)c(O)c(OC(=O)c3cc(O)c(O)c(O)c3)c2)[C@@H](OC(=O)c2cc(O)c(O)c(OC(=O)c3cc(O)c(O)c(O)c3)c2)[C@@H]1OC(=O)c1cc(O)c(O)c(OC(=O)c2cc(O)c(O)c(O)c2)c1)c1cc(O)c(O)c(OC(=O)c2cc(O)c(O)c(O)c2)c1 :: 0
O=C(O)C(=O)O :: 0
CN1C[C@H](C(=O)N[C@]2(C)O[C@@]3(O)[C@@H]4CCCN4C(=O)[C@H](Cc4ccccc4)N3C2=O)C=C2c3cccc4[nH]cc(c34)C[C@H]21 :: 0
CCNC(=O)[C@@H]1CCCN1C(=O)[C@H](CCCNC(=N)N)NC(=O)[C@H](CC(C)C)NC(=O)[C@@H](CC(C)C)NC(=O)[C@H](Cc1ccc(O)cc1)NC(=O)[C@H](CO)NC(=O)[C@H](Cc1c[nH]c2ccccc12)NC(=O)[C@H](Cc1c[nH]cn1)NC(=O)[C@@H]1CCC(=O)N1 [LEUPROLIDE] :: 0
O=c1[nH]c2ccccc2n1CCCN1CCC(n2c(=O)[nH]c3cc(Cl)ccc32)CC1 :: 0
CN(Cc1cnc2nc(N)nc(N)c2n1)c1ccc(C(=O)N[C@@H](CCC(=O)O)C(=O)O)cc1 [METHOTREXATE] :: 35
CC(C)(S)C(=O)N[C@@H](CS)C(=O)O :: 0
C[C@]12CC[C@H]3[C@@H](CCC4=CC(=O)CC[C@@H]43)[C@@H]1CC[C@@H]2O :: 0
CC(C)(N)C(=O)N[C@H](COCc1ccccc1)C(=O)N1CCC2(CC1)CN(S(C)(=O)=O)c1ccccc12 :: 0
[H]/N=C(/N)N/C(=N/[H])NCCc1ccccc1 :: 0
COc1cccc(OC)c1C(=O)N[C@@H]1C(=O)N2[C@@H]1SC(C)(C)[C@@H]2C(=O)O :: 0
CNC1Cc2ccccc2N(C)c2ccccc21 (centres undefined) :: 0
CC(=O)CCC1C(=O)N(c2ccccc2)N(c2ccccc2)C1=O :: 2.7
CCC(C)n1ncn(-c2ccc(N3CCN(c4ccc(OCC5COC(Cn6cncn6)(c6ccc(Cl)cc6Cl)O5)cc4)CC3)cc2)c1=O (centres undefined) :: 30
CO[C@@H]1[C@@H](N)[C@@H](O[C@H]2[C@H](Oc3cccc4c(O)c5c(=O)oc6ccc(C)c7c(=O)oc(c34)c5c67)O[C@H](C)[C@H](O)[C@]2(C)O)O[C@H](C)[C@@H]1O :: 1.6
CC(=O)Nc1cc([As](=O)(O)O)ccc1O :: 0
CCn1cc(C(=O)O)c(=O)c2cc(F)c(N3CCNCC3)nc21 :: 0
CCN1CCN(C(=O)N[C@@H](C(=O)N[C@@H]2C(=O)N3[C@@H]2SC(C)(C)[C@@H]3C(=O)O)c2ccccc2)C(=O)C1=O.C[C@]1(Cn2ccnn2)[C@H](C(=O)O)N2C(=O)C[C@H]2S1(=O)=O :: 0
CCN(CC)CCOC(=O)[C@@H](Cc1cccc2ccccc12)C[C@@H]1CCCO1 :: 0
Cc1ccnc2c1NC(=O)c1cccnc1N2C1CC1 :: 37.5

* * *

assay: Proposed mechanism(s) of liver damage. [column 'MEC' in source]; conditions: human
endpoint: Hepatotoxicity (mechanism)

CC1=C(/C=C/C(C)=C/C=C/C(C)=C/C(=O)O)C(C)(C)CCC1 [TRETINOIN] :: Dose-dependant
COc1ccc(OC)c(Cc2cnc3nc(N)nc(N)c3c2C)c1 [PIRITREXIM] :: Dose-dependant
CCCNC(=O)NS(=O)(=O)c1ccc(Cl)cc1 [CHLORPROPAMIDE] :: Allergic, Dose-dependant
O=C(O)C1=C(CSc2nnnn2CS(=O)(=O)O)CS[C@@H]2[C@H](NC(=O)[C@H](O)c3ccccc3)C(=O)N12 [CEFONICID] :: Allergic
CCCNCC(O)COc1ccccc1C(=O)CCc1ccccc1 (stereo unspecified) [PROPAFENONE] :: Allergic
O=C1CN(/N=C/c2ccc([N+](=O)[O-])o2)C(=O)N1CO [NIFURTOINOL] :: Allergic
CO[C@H]1C[C@H](O[C@H]2[C@H](C)[C@@H](O[C@@H]3O[C@H](C)C[C@H](N(C)C)[C@H]3OC(C)=O)[C@@H](C)C[C@@]3(CO3)C(=O)[C@H](C)[C@@H](OC(C)=O)[C@@H](C)[C@@H](C)OC(=O)[C@@H]2C)O[C@@H](C)[C@@H]1OC(C)=O [TROLEANDOMYCIN] :: Allergic, Dose-dependant
CC(=O)OCC1=C(C(=O)O)N2C(=O)[C@@H](NC(=O)Cc3cccs3)[C@H]2SC1 [CEPHALOTHIN] :: Allergic
NC(=O)NC(=O)Cc1ccccc1 [PHENACEMIDE] :: Allergic
CC1=C(C(=O)O)N2C(=O)[C@@H](NC(=O)[C@H](N)c3ccccc3)[C@H]2SC1 [CEPHALEXIN ANHYDROUS] :: Allergic
Cc1nnc(SCC2=C(C(=O)O)N3C(=O)[C@@H](NC(=O)Cn4cnnn4)[C@H]3SC2)s1 [CEFAZOLIN] :: Allergic
COc1ccc2[nH]cc(CCNC(C)=O)c2c1 [MELATONIN] :: Allergic
NNc1nnc(NN)c2ccccc12 [DIHYDRALAZINE] :: Allergic
NC(=O)c1cccnc1 [NIACINAMIDE] :: Dose-dependant
CO[C@H]1/C=C/O[C@@]2(C)Oc3c(C)c(O)c4c(O)c(c(/C=N/N5CCN(C)CC5)c(O)c4c3C2=O)NC(=O)/C(C)=C\C=C\[C@H](C)[C@H](O)[C@@H](C)[C@@H](O)[C@@H](C)[C@H](OC(C)=O)[C@@H]1C [RIFAMPIN] :: Allergic, Dose-dependant
CS(=O)(=O)c1ccc(C2=C(c3ccccc3)C(=O)OC2)cc1 [ROFECOXIB] :: Allergic

* * *

conditions: human, serum
Where a SMILES comes first, the peptide text is derived from it. Bridges are numbered along the chain shown (N, C = ends). [ ]: non-standard residue; d: D form.
Measured Hepatotoxicity (acute) accompanies every entry in the list below.
endpoint: Hepatotoxicity (acute)

CC(C)[C@@H]1NC(=O)[C@H](CCCCN)NC(=O)[C@@H](Cc2c[nH]c3ccccc23)NC(=O)[C@H](Cc2ccc(O)cc2)NC(=O)[C@@H](NC(=O)[C@H](N)Cc2ccccc2)CSSC[C@@H](C(=O)N[C@@H](Cc2c[nH]c3ccccc23)C(N)=O)NC1=O [VAPREOTIDE] (H-[dF]CY[dW]KVCW-NH2; disulfide 2-7) :: 0
Cc1cc(Br)c(O)c2ncccc12 :: 1
NC(=O)CCC/N=C(\c1ccc(Cl)cc1)c1cc(F)ccc1O [PROGABIDE] :: 6

* * *

assay: Highest frequency of moderate liver toxicity observed during clinical trials, expressed as a percentage. [column '% BIOL' in source]; conditions: human
endpoint: Hepatotoxicity (moderate) (%)

CCN(CC)CC(=O)Oc1ccc(NC(C)=O)cc1 [PROPACETAMOL] :: 2.1
CC(=O)OCOC(=O)C1=C(COC(N)=O)SC2[C@H]([C@H](C)O)C(=O)N12 (some centres undefined) :: 20
O=C(O)c1nn(Cc2ccc(Cl)cc2Cl)c2ccccc12 [LONIDAMINE] :: 6.4
O=C1Nc2ccc(Cl)cc2C(c2ccccc2Cl)=NC1O (centres undefined) [LORAZEPAM] :: 0
Clc1cccc(C(c2ccc3[nH]cnc3c2)n2ccnc2)c1 (centres undefined) [LIAROZOLE] :: 2.9
CCC1(CC)C(=O)NCC(C)C1=O (centres undefined) [METHYPRYLON] :: 0
COc1cccc2c1C(=O)c1c(O)c3c(c(O)c1C2=O)C[C@@](O)(C(=O)CO)C[C@@H]3O[C@H]1C[C@H](N)[C@@H](O)[C@H](C)O1 [EPIRUBICIN] :: 6.4
CCCCCNCC(N)=O [MILACEMIDE] :: 70
O=C(Nc1ccc(Cl)cc1)NS(=O)(=O)c1ccc2c(c1)CCC2 [SULOFENUR] :: 80
